Reference source for all entries: ChEMBL document CHEMBL1268905

# measurement target: Cyclin-dependent kinase 2/cyclin A (Homo sapiens)
# protocol summary: Inhibition of CDK2/cyclin A
endpoint name: IC50
Hi, when you answer, please include the unit after the number. Thanks!

Answered cases to consult:
1) CNC(=O)c1cn(C)c2c1C(C)(C)Cc1cnc(Nc3cccc(CN(C)C)c3)nc1-2 :: 83 nM
2) CNC(=O)c1cn(C)c2c1C(C)(C)Cc1cnc(Nc3ccc(CN(C)C)cc3)nc1-2 :: 35 nM
3) CN1CCN(C(=O)N2CCC(Nc3ncc4c(n3)-c3c(c(C(N)=O)cn3C)CC4)CC2)CC1 :: 12 nM

Given the entry "CNC(=O)c1cn(C)c2c1CCc1cnc(NC3CCN(C(C)=O)CC3)nc1-2" , report its measured IC50.
32 nM

"CNC(=O)c1cn(C)c2c1C(C)(C)Cc1cnc(Nc3cccc(N4CCN(C)CC4)c3)nc1-2" , same question.
31 nM
